target-or-system: M5 (Homo sapiens, UniProt P08912)
Sequence (P08912 1-532): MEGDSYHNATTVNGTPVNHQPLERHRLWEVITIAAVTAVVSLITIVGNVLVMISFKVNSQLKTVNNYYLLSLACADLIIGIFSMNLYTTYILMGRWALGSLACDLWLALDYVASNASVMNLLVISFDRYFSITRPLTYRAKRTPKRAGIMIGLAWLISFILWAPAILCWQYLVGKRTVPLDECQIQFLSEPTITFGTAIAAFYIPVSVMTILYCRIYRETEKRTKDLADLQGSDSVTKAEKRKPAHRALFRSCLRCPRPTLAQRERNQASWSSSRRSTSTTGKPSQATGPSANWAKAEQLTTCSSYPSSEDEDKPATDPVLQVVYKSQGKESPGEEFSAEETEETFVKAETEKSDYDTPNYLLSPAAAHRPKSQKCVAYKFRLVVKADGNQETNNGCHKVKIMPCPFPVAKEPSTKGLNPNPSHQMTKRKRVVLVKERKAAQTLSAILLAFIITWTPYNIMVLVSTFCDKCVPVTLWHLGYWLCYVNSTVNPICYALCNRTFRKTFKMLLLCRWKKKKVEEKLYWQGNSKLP
observable: Ki
Form entry: enter the amount, then its unit.

Any idea what Ki was measured for CCCCCCOc1nsnc1C1=CCCNC1 ?
93.3 nM

Hey, just so you know, these numbers are from paper doi:10.1101/2025.11.20.689572v1.
